cAMP Rel EC50 (1% HSA) overview
- Tested on: hGLP-1R (Homo sapiens, UniProt P43220)
- Sequence (P43220 24-463): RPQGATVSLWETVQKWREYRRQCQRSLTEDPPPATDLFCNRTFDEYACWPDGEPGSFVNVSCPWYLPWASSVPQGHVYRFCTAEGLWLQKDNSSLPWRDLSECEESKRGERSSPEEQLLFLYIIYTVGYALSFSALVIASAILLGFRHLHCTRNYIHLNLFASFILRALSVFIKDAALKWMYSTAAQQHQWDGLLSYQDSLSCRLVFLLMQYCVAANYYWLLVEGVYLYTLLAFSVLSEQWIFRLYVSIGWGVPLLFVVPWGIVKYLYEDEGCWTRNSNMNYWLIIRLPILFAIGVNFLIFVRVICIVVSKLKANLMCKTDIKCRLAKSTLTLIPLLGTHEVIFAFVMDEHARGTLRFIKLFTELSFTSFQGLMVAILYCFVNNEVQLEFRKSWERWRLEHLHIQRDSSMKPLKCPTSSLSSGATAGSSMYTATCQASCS
- Test protocol: cell-based or functional assay
Recorded endpoint: cAMP Rel EC50 (1% HSA) (nM)

Binder | Recorded endpoint | Value measured
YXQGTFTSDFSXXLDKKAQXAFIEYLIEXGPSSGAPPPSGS (synthetic construct; SITE 2: note = 2-Aminoisobutyric Acid; SITE 12: note = (S)-2,4-diaminobutanoic acid; SITE 13: note = alpha-methyl-leucine; SITE 17: note = Lysine is chemically modified through conjugation of the epsilon-amino group of the Lysine side chain with (2-[2-(2-Amino-ethoxy)-ethoxy]-ac)) [Example 799] | cAMP Rel EC50 (1% HSA) | 179
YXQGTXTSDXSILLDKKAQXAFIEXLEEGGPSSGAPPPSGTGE (synthetic construct; SITE 2: note = 2-Aminoisobutyric Acid; SITE 6: note = alpha-methyl-2-fluoro-L-phenylalanine; SITE 10: note = 3-(4-Pyridyl)-L-alanine; SITE 17: note = Lysine is chemically modified through conjugation of the epsilon-amino group of the Lysine side chain with (gamma-Glu)2-CO-(CH2)1) [Example 664] | cAMP Rel EC50 (1% HSA) | 27.7
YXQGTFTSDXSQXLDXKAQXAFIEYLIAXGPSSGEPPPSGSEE (non-natural residues, acylated Lys ((γGlu)2-C18 diacid), C-terminal amide; synthetic construct; SITE 2: note = 2-Aminoisobutyric Acid; SITE 10: note = 3-(4-Pyridyl)-L-alanine; SITE 13: note = alpha-methyl-leucine; SITE 16: note = L-ornithine; SITE 17: note = Lysine is chemically modified through conjugation of the epsilon-amino group of the Lysine side chain with (gamma-Gl)) [Example 1092] | cAMP Rel EC50 (1% HSA) | 230
